biological target: Mitogen-activated protein kinase 14 (Homo sapiens); test: Inhibition of wild type p38alpha
value-kind: IC50 (nM)
Value expressed in nM; do not type the unit.

Ask: Item CC(C)(C)N1CCC(c2cc(-c3ccc(F)cc3F)c3ccc(=O)n(-c4c(Cl)cccc4Cl)c3c2)CC1 : provide IC50
Reply: 0.08

###

molecular target: Mitogen-activated protein kinase 14 (Homo sapiens, UniProt Q16539, T106M); assay: Inhibition of p38alpha T106M mutant
Sequence (Q16539 2-360 T106M limits assumed): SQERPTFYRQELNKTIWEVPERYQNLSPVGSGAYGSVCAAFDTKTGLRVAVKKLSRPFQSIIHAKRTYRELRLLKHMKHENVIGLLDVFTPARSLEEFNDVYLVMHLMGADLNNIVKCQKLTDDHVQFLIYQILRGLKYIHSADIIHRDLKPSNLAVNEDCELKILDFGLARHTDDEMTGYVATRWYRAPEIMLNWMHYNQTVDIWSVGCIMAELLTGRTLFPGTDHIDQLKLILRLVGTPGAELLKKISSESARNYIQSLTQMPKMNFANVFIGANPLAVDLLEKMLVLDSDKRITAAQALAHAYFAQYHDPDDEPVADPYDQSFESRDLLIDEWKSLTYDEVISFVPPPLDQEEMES
value-kind: pIC50
Reminder that pIC50 means the negative base-10 logarithm of the concentration expressed in mol/L.

Ask: Indicate its recorded pIC50; the compound in question is CC(C)(C)N1CCC(c2cc(-c3ccc(F)cc3F)c3ccc(=O)n(-c4c(Cl)cccc4Cl)c3c2)CC1
Reply: 7.55
